Molecular target: B-RAF G466V (Homo sapiens, UniProt P15056, G466V)
Construct: expressed in transfected cells; host or cells: T-Rex 293 cells (Invitrogen #R71007)
Sequence (P15056 whole entry G466V): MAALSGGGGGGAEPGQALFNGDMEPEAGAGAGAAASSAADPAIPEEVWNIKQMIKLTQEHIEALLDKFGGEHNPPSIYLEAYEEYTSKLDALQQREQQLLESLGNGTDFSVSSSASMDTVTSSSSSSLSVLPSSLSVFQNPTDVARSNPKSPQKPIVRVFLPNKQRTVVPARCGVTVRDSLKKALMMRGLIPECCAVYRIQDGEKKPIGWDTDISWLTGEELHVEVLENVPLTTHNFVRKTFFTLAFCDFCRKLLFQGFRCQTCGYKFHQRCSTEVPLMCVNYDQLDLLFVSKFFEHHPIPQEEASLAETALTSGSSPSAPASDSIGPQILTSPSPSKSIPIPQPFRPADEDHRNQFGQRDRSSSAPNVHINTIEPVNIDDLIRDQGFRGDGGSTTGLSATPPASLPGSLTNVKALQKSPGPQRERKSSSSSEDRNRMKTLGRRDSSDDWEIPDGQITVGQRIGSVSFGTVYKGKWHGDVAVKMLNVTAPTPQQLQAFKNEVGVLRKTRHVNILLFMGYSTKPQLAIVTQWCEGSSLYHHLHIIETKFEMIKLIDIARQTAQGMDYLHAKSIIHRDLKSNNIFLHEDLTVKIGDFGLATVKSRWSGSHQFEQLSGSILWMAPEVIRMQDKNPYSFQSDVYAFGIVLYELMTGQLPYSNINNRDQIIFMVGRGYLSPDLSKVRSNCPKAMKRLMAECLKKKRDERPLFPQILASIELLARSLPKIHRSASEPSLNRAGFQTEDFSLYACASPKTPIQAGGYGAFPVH
Test: Target protein degradation, assay D: T-Rex 293 cells, HA-BRAF_G466V, 384 well format
Assay type: cell-based
Conditions: T-REx-293, Assay D, T-Rex 293 HA-BRAF_G466V cells, 24 hours, Examples 83-269
This section presents molecules with their documented Dmax values.

1) N#Cc1c(NS(=O)(=O)N2CC[C@@H](F)C2)ccc(F)c1Oc1ccc2ncn(-c3ccc(N4CCC(O[C@H]5C[C@H](N6CCC(c7ccc8c(c7)CN(C7CCC(=O)NC7=O)C8=O)CC6)C5)CC4)cc3)c(=O)c2c1 (stereo partly drawn)	35 to 70%
2) N#Cc1c(NS(=O)(=O)N2CC[C@@H](F)C2)ccc(F)c1Oc1ccc2ncn(-c3ccc(C4CCN(CC5CCN(c6ccc7c(c6)CN([C@H]6CCC(=O)NC6=O)C7=O)CC5)C4)cc3)c(=O)c2c1 (stereo partly drawn)	≤ 35%
3) O=C1CCC(N2Cc3cc(N4CCC(CN5CCN(c6ccc(-n7cnc8ccc(Oc9c(F)ccc(NS(=O)(=O)N%10CC[C@@H](F)C%10)c9F)cc8c7=O)cc6)CC5)CC4)ccc3C2=O)C(=O)N1 (stereo partly drawn)	35 to 70%
4) N#Cc1c(NS(=O)(=O)N2CC[C@@H](F)C2)ccc(F)c1Oc1ccc2ncn(-c3ccc(N4CCN(CC5CN(c6cc(F)c7c(c6)CN(C6CCC(=O)NC6=O)C7=O)C5)CC4)cc3)c(=O)c2c1 (stereo partly drawn)	35 to 70%
5) N#Cc1c(NS(=O)(=O)N2CC[C@@H](F)C2)ccc(F)c1Oc1ccc2ncn(-c3ccc(N4CCN(CC5CCN(c6ccc7c(c6)CN(C6CCC(=O)NC6=O)C7=O)CC5)CC4)cn3)c(=O)c2c1 (stereo partly drawn)	≤ 35%

Give the reported Dmax for this molecule. N#Cc1c(NS(=O)(=O)N2CC[C@@H](F)C2)ccc(F)c1Oc1ccc2ncn(-c3ccc(N4CCN([C@H]5C[C@H](OC6CCN(c7ccc8c(c7)CN(C7CCC(=O)NC7=O)C8=O)CC6)C5)CC4)cc3)c(=O)c2c1 (stereo partly drawn)
35 to 70%

# return recorded Dmax for entry N#Cc1c(NS(=O)(=O)N2CC[C@@H](F)C2)ccc(F)c1Oc1ccc2ncn(-c3ccc(N4CC(C5CN(c6ccc7c(c6)C(=O)N(C6CCC(=O)NC6=O)C7=O)C5)C4)nc3)c(=O)c2c1 (stereo partly drawn)
≤ 35%

Provide only the value of recorded Dmax for N#Cc1c(NS(=O)(=O)N2CC[C@@H](F)C2)ccc(F)c1Oc1ccc2ncn(-c3ccc(N4CCC(CN5CCC(Oc6ccc7c(c6)C(=O)N(C6CCC(=O)NC6=O)C7=O)CC5)CC4)nc3)c(=O)c2c1 (stereo partly drawn)
35 to 70%

Quote Dmax reported for Cn1c(=O)n(C2CCC(=O)NC2=O)c2cccc(N3CCN(CCN4CCN(c5ccc(-n6cnc7ccc(Oc8c(F)ccc(NS(=O)(=O)N9CC[C@@H](F)C9)c8C#N)cc7c6=O)cc5)CC4)CC3)c21 (stereo partly drawn) please.
35 to 70%

###

Biological target: B-RAF V600E (Homo sapiens, UniProt P15056, V600E)
Construct: expressed in transfected cells; host or cells: T-Rex 293 cells (Invitrogen #R71007)
Sequence (P15056 whole entry V600E): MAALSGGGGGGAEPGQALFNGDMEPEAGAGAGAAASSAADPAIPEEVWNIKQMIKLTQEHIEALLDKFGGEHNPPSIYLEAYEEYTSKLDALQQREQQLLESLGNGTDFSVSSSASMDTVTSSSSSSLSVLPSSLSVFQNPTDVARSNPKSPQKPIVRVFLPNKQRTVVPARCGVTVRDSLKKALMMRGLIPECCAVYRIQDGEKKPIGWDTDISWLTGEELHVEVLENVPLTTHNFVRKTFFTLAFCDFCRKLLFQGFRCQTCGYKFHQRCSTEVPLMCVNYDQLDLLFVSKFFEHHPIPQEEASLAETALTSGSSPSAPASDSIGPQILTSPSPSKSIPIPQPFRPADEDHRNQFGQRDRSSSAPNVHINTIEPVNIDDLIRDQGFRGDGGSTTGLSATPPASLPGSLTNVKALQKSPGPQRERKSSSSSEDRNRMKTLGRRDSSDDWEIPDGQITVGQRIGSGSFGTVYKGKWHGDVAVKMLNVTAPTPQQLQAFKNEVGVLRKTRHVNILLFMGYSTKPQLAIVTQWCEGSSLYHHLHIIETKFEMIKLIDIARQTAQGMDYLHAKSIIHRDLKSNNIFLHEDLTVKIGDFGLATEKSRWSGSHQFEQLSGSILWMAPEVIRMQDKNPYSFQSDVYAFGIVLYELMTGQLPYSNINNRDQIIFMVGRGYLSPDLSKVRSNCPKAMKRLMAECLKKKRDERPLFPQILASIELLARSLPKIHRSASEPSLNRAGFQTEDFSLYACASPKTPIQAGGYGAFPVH
Assay: Target protein degradation, assay C: T-Rex 293 cells, HA-BRAF_V600E, 384 well format
Assay type: cell-based
Details: Assay C, T-Rex 293 HA-BRAF_V600E cells, 24 hours, Examples 83-269
# DC50 annotations

Fill in: DC50 on B-RAF V600E (Homo sapiens, UniProt P15056, V600E), entry N#Cc1c(NS(=O)(=O)N2CC[C@@H](F)C2)ccc(F)c1Oc1ccc2ncn(-c3ccc(N4CC(C5CN(c6ccc7c(c6)C(=O)N(C6CCC(=O)NC6=O)C7=O)C5)C4)nc3)c(=O)c2c1 (stereo partly drawn) [Example 158]
50 to 500 nM

###

Target: B-RAF G466V (Homo sapiens, UniProt P15056, G466V)
Construct: expressed in transfected cells; host or cells: T-Rex 293 cells (Invitrogen #R71007)
Experiment: Target protein degradation, assay D: T-Rex 293 cells, HA-BRAF_G466V, 384 well format
Assay type: cell-based
Details: Assay D, T-Rex 293 HA-BRAF_G466V cells, 24 hours, Examples 83-269
Readings of DC50 for the listed molecules

1. N#Cc1c(NS(=O)(=O)N2CC[C@@H](F)C2)ccc(F)c1Oc1ccc2ncn(-c3ccc(N4CC(CN5CCC(c6ccc7c(c6)CN([C@H]6CCC(=O)NC6=O)C7=O)CC5)C4)cc3)c(=O)c2c1	0.001 to 0.01 µM
2. Cc1cc(N2CC(CN3CCN(c4ccc(-n5cnc6ccc(Oc7c(F)ccc(NS(=O)(=O)N8CC[C@@H](F)C8)c7C#N)cc6c5=O)cc4)CC3)C2)cc2c1C(=O)N([C@H]1CCC(=O)NC1=O)C2	0.001 to 0.01 µM
3. N#Cc1c(NS(=O)(=O)N2CC[C@@H](F)C2)ccc(F)c1Oc1ccc2ncn(-c3cnc(N4CCC(CC5CCCN5c5ccc6c(c5)C(=O)N(C5CCC(=O)NC5=O)C6=O)CC4)nc3)c(=O)c2c1 (some centres unmarked)	> 0.03 µM
4. N#Cc1c(NS(=O)(=O)N2CC[C@@H](F)C2)ccc(F)c1Oc1ccc2ncn(-c3ccc(N4CCN(CC5CN(c6cc(F)c7c(c6)CN(C6CCC(=O)NC6=O)C7=O)C5)CC4)cc3)c(=O)c2c1 (some centres unmarked)	0.001 to 0.01 µM

Below: the item to evaluate.
Output DC50 of `N#Cc1c(NS(=O)(=O)N2CC[C@@H](F)C2)ccc(F)c1Oc1ccc2ncn(-c3ccn(C4CCN(CC5CCN(c6ccc7c(c6)CN([C@H]6CCC(=O)NC6=O)C7=O)CC5)CC4)n3)c(=O)c2c1`
0.001 to 0.01 µM

###

Molecular target: B-RAF G466V (Homo sapiens, UniProt P15056, G466V)
Construct: expressed in transfected cells; host or cells: T-Rex 293 cells (Invitrogen #R71007)
Assay: Target protein degradation, assay D: T-Rex 293 cells, HA-BRAF_G466V, 384 well format
Assay type: cell-based
Conditions: T-REx-293, Assay D, T-Rex 293 HA-BRAF_G466V cells, 24 hours, Examples 83-269
ATTRIBUTE_MEASURED: Dmax

1. N#Cc1c(NS(=O)(=O)N2CC[C@H](F)C2)ccc(F)c1Oc1ccc2ncn(-c3ccc(N4CCN(CC5CN(c6ccc7c(c6)CN([C@@H]6CCC(=O)NC6=O)C7=O)C5)CC4)cc3)c(=O)c2c1	35 to 70%

Supply recorded Dmax for N#Cc1c(NS(=O)(=O)N2CC[C@@H](F)C2)ccc(F)c1Oc1ccc2ncn(-c3ccc(N4CCC(CCN5CCN(c6ccc7c(c6)C(=O)N(C6CCC(=O)NC6=O)C7=O)CC5)CC4)nc3)c(=O)c2c1 (stereo partly shown) here.
≤ 35%

Provide one value: measured Dmax of CCc1c(NS(=O)(=O)N2CC[C@@H](F)C2)ccc(F)c1Oc1ccc2ncn(-c3ccc(N4CCN(CC5CCN(c6ccc7c(c6)CN(C6CCC(=O)NC6=O)C7=O)CC5)CC4)cc3)c(=O)c2c1 (stereo partly shown)
≤ 35%

Supply reported Dmax belonging to this compound: N#Cc1c(NS(=O)(=O)N2CC[C@@H](F)C2)ccc(F)c1Oc1ccc2ncn(-c3ccc(N4CC(CN5CCN(C6CCN(c7ccc8c(c7)CN(C7CCC(=O)NC7=O)C8=O)CC6)CC5)C4)cc3)c(=O)c2c1 (single isomer, unassigned)
35 to 70%

###

Target: B-RAF V600E (Homo sapiens, UniProt P15056, V600E)
Construct: expressed in transfected cells; host or cells: T-Rex 293 cells (Invitrogen #R71007)
Assay: Target protein degradation, assay C: T-Rex 293 cells, HA-BRAF_V600E, 384 well format
Assay type: cell-based
Conditions: T-REx-293, Assay C, T-Rex 293 HA-BRAF_V600E cells, 24 hours, Examples 83-269
ATTRIBUTE_MEASURED: Dmax

Recorded Dmax, per entry:
1. N#Cc1c(NS(=O)(=O)N2CC[C@@H](F)C2)ccc(F)c1Oc1ccc2ncn(-c3ccc(N4CCC(CN5CCC(c6ccc7c(c6)CN([C@H]6CCC(=O)NC6=O)C7=O)CC5)C4)cc3)c(=O)c2c1 (some centres unmarked)	35 to 70%
2. N#Cc1c(NS(=O)(=O)N2CC[C@@H](F)C2)ccc(F)c1Oc1ccc2ncn(-c3ccc(N4CCC(CN5CC(c6ccc7c(c6)CN(C6CCC(=O)NC6=O)C7=O)C5)CC4)cc3)c(=O)c2c1 (some centres unmarked)	35 to 70%
3. N#Cc1c(NS(=O)(=O)N2CC[C@@H](F)C2)ccc(F)c1Oc1ccc2ncn(-c3ccc(N4CCC(CN5CC(c6ccc([C@H]7CCC(=O)NC7=O)cc6F)C5)CC4)cc3)c(=O)c2c1	35 to 70%
4. N#Cc1c(NS(=O)(=O)N2CC[C@@H](F)C2)ccc(F)c1Oc1ccc2ncn(-c3ccc(C4CCCN(CC5CCN(c6ccc7c(c6)CN([C@H]6CCC(=O)NC6=O)C7=O)CC5)C4)cc3)c(=O)c2c1 (some centres unmarked)	≥ 70%

Provide measured Dmax value, entry: `N#Cc1c(NS(=O)(=O)N2CC[C@@H](F)C2)ccc(F)c1Oc1ccc2ncn(-c3ccc(N4CCC(CN5CCN(CC6CCN(c7ccc8c(c7)CN([C@@H]7CCC(=O)NC7=O)C8=O)CC6)CC5)CC4)cc3)c(=O)c2c1`
35 to 70%
